Values compiled from ChEMBL document CHEMBL1201862.

ASSAY SYSTEM: Microphthalmia-associated transcription factor (Homo sapiens)
Sequence (O75030 whole entry): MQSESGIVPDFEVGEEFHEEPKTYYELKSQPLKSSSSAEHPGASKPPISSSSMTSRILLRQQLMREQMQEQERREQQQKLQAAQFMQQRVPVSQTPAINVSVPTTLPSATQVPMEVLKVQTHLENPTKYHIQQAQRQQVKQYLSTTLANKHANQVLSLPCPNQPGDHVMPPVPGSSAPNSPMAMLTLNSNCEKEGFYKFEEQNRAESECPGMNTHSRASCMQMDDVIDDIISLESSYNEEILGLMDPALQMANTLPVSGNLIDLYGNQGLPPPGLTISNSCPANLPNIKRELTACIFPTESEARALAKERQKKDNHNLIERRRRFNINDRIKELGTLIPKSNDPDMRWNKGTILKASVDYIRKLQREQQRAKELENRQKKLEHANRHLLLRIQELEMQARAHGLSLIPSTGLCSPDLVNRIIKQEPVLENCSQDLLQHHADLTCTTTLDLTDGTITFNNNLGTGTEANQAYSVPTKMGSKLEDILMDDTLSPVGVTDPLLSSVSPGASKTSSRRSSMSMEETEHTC
PROCEDURE TEXT: TRPM1 promoter luciferase signal decrease, dose response, MITF inhibitor project, cell-based, SK-MEL-5, cherry-picked, set 3 (AID 493073);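 note: SK-MEL-5 melanoma cells with luciferase driven by the MITF target TRPM1 promoter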
Assay type: functional
Activity calls are given as the source filed them.
Measured AC50 by item

Past entries and their recorded results:
In [3]: df
Out[3]:
                                   compound  reported_measurement
0              CCCCNC(=O)Nc1ccc(C2SCCS2)cc1      35.3 µM (active)
1                 Oc1nncc(N/N=C/c2ccccn2)n1      4.65 µM (active)
2  CCN1c2ccccc2NC2N=C(OC)C(c3ccccc3)C21 (stereo not drawn)      7.51 µM (active)
3        CC(=O)c1c(C)oc2c1C(=O)c1ccccc1C2=O      6.68 µM (active)
4  Cc1cc(C(=O)COc2cccnc2[N+](=O)[O-])c(C)n1-c1ccccc1      1.48 µM (active)

API: value(readout=AC50, system=Microphthalmia-associated transcription factor (Homo sapiens)) for record "O=C(Nc1ccc(Nc2ccncc2)cc1)c1ccc([N+](=O)[O-])cc1"
7.22 µM (active)

API: value(readout=AC50, system=Microphthalmia-associated transcription factor (Homo sapiens)) for record "Cc1nnc2nc(SCC(=O)NCCC3=CCCCC3)n(-c3ccc(Br)cc3)c(N)c1-2"
2.46 µM (active)

API: value(readout=AC50, system=Microphthalmia-associated transcription factor (Homo sapiens)) for record O=C(CCl)N1c2ccccc2SCC1c1ccccc1 (stereo not drawn)
4.2 µM (active)

----------
ASSAY SYSTEM: High affinity choline transporter 1 (Homo sapiens, UniProt Q9GZV3)
Sequence (Q9GZV3 whole entry): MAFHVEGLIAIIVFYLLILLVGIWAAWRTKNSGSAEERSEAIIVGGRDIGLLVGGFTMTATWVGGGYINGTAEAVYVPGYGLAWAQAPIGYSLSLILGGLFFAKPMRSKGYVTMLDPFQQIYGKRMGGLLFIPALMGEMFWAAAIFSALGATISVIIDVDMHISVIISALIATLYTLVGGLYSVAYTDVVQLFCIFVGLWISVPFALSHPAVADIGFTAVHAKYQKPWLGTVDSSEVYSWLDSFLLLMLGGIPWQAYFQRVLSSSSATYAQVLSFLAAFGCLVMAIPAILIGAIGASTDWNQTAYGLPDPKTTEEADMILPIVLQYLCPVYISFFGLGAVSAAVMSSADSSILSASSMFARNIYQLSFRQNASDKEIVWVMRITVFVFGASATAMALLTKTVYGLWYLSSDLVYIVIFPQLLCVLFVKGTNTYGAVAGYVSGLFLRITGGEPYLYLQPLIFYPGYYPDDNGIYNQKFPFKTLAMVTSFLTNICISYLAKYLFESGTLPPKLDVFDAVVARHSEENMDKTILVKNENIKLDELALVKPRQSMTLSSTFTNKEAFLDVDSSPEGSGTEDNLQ
PROCEDURE TEXT: CHT inhibitors, dose response, cell-based, 5-point CRC, membrane potential dye (AID 504840)
Format: functional
Active and inactive are the calls of the source.
MEASUREMENT LABEL: IC50

>>> df
                                   molecule  reported_measurement
0  O=C(O)CC1=C(Nc2ccccc2)C(=O)N(c2ccccc2)C1c1ccc(F)cc1 (stereo not given)       3.9 µM (active)
1  CC(NC(=O)c1cccc(OC2CCN(C(=O)C3CC3)CC2)c1)c1ccc(F)cc1 (stereo not given)      17.4 µM (active)
2  Nc1c(C(=O)OC2CCCCC2)c2nc3ccccc3nc2n1CC1CCCO1 (stereo not given)      13.2 µM (active)
3  CCS(=O)(=O)C1=NN2C(=N)/C(=C\c3ccc(OS(=O)(=O)c4ccccc4)cc3)C(=O)N=C2S1      6.95 µM (active)

# input molecule: "CSCC[C@@H](C(=O)NCCCCCCCCCCC(=O)N1CCN(C(=O)OC(C)(C)C)CC1)n1cc(CCO)nn1" ; wanted: its IC50
14.5 µM (active)

----------
ASSAY SYSTEM: Fatty acid synthase (Homo sapiens)
Sequence (P49327 whole entry, the tested form may be a part): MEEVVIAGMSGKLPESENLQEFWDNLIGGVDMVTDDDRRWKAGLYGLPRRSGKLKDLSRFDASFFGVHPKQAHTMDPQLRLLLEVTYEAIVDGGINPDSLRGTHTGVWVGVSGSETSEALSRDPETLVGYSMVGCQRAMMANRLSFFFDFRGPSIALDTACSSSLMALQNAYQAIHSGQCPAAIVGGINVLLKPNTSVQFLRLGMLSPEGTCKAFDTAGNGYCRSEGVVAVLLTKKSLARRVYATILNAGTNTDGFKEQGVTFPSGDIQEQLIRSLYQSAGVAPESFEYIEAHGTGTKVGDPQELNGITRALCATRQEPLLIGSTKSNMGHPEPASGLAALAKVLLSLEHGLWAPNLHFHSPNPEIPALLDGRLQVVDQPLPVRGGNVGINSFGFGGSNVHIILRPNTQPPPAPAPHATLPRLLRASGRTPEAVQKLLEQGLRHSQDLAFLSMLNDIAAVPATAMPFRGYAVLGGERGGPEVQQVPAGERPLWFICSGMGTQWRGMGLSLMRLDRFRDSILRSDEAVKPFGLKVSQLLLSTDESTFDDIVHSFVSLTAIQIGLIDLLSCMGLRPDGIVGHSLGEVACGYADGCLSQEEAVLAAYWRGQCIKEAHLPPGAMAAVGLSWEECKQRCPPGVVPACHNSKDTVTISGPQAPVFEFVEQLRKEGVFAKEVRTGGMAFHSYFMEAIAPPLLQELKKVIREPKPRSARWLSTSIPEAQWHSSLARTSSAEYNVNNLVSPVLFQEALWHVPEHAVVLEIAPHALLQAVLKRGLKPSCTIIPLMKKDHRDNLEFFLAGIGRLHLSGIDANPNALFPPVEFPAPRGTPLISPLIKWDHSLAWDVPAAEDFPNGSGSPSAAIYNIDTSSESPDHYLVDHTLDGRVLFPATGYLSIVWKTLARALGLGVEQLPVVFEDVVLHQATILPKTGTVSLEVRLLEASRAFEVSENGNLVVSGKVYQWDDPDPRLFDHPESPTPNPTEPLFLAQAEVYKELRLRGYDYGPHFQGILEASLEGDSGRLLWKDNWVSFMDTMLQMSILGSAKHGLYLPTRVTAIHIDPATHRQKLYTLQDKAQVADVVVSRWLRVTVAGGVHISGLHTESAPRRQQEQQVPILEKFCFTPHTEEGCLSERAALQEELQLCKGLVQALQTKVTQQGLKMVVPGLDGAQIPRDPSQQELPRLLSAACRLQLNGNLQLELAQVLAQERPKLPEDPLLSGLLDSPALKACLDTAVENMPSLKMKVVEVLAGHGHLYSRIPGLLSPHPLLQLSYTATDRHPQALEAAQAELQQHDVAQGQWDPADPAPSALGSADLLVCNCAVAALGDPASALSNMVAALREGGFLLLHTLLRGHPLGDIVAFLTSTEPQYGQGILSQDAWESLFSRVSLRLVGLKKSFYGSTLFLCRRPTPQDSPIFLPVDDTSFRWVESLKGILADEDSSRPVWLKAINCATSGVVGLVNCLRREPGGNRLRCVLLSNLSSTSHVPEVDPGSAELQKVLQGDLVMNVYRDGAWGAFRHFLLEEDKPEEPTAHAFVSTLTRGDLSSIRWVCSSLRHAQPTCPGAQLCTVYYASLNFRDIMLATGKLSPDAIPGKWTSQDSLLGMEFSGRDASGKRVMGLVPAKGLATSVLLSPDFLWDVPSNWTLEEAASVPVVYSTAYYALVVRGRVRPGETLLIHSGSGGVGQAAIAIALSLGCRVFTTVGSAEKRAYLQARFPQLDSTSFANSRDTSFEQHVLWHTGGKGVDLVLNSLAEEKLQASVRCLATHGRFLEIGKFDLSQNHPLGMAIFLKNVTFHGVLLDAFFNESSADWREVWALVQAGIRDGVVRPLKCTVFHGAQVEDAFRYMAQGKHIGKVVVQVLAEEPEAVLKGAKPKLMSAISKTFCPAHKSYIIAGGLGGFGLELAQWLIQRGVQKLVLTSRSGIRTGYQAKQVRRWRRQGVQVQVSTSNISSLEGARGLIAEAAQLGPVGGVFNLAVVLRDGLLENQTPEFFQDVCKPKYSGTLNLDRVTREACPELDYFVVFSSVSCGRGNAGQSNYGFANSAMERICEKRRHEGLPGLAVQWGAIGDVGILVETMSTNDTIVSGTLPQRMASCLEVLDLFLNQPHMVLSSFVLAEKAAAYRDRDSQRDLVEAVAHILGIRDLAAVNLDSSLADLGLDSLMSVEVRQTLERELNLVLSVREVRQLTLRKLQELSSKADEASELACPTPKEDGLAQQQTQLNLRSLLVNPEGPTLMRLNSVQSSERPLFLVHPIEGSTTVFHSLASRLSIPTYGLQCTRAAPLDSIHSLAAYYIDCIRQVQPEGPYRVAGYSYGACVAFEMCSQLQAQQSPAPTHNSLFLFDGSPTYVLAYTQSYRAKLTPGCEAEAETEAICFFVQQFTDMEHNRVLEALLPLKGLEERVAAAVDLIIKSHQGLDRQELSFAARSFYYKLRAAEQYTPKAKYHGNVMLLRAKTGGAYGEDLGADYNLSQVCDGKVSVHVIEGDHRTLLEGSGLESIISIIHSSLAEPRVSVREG
PROCEDURE TEXT: FAS thioesterase domain inhibitors, dose response, biochemical, endpoint fluorescence intensity, uHTS hits (AID 624327);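 note: fluorescence from hydrolysis of an O-methyl fluorescein acyl ester substrate by the enzyme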
Format: functional
Active and inactive are the calls of the source.
Measured IC50 by item

Past entries and their recorded results:
>>> df
                                   compound  measurement_label  reported_measurement
0  Cc1cc(C)c(C#N)c(SC[S+]([O-])Cc2ccc(Cl)cc2)n1 (centres undefined)               IC50      5.88 µM (active)
1  CCOC(=O)[C@]12Cc3ccc(C)cc3[C@H]1N(C1CCCCC1)C(=O)c1ccccc12               IC50      6.12 µM (active)
2  O=[N+]([O-])c1c(NCCCO)cc(Sc2ccc(Cl)cc2)c2nonc12               IC50      11.5 µM (active)

# input compound: "Cc1ccc(NC(=O)CCNC(=O)c2ccc([N+](=O)[O-])cc2)cc1C" ; wanted: its IC50
9.54 µM (active)

# input compound: "O=C(CSc1ccc([N+](=O)[O-])cc1)NCC1CCCCC1" ; wanted: its IC50
8.2 µM (active)

# input compound: O=C(Cn1cc([N+](=O)[O-])ccc1=O)NCC1COc2ccccc2O1 (centres undefined) ; wanted: its IC50
10.1 µM (active)

# input compound: "O=C(Nc1ccc(C(=O)O)cc1)/C(=C\c1ccc([N+](=O)[O-])cc1)NC(=O)c1ccc(Br)cc1" ; wanted: its IC50
2.05 µM (active)

# input compound: "O=C(COC(=O)c1cc([N+](=O)[O-])ccc1N1CCOCC1)Nc1cccc(F)c1" ; wanted: its IC50
1.1 µM (active)

# input compound: "C=CCn1cc(C(=O)NCc2ccco2)c(=O)c2cc(S(=O)(=O)N3CCCCCC3)ccc21" ; wanted: its IC50
6.69 µM (active)
